Tested on: UO-31 renal
Assay text: NCI-60 one-dose screen, 48 h (100 = growth as untreated, 0 = no growth, -100 = all killed)
Condition info: 10 µM unless noted
The panel holds about 83,000 compounds, 20% with a hit somewhere; the sample as a whole holds those more often.
Rule: growth of 60% or more gives True; anything lower gives False.

smiles_repr=COc1ccc(Cn2cc3c(c2-c2ccccc2)CCc2cncnc2-3)cc1 class_label=False
smiles_repr=N#Cc1ccc(NC(=O)Nc2ccc(Oc3ccc(NC(=O)Nc4ccc(C#N)cc4)cc3)cc2)cc1 class_label=False
smiles_repr=Cc1cc(Cl)ccc1Nc1nc(C(F)(F)F)ccc1C(=O)NCC(=O)N/N=C/c1c(Cl)cccc1Cl class_label=True
smiles_repr=Oc1[nH]c2ccc(Cl)cc2c1/C=c1/ccc2c(c1)N=C(c1ccc(C(F)(F)F)cc1)N=2 class_label=True

---

Test system: SF-268 CNS
Assay text: NCI-60 one-dose screen, 48 h (100 = growth as untreated, 0 = no growth, -100 = all killed)
Condition info: 10 µM unless noted
About 83,000 compounds went through this panel and 20% of them were active in at least one assay; those are over-represented in the sample as a whole.
Property: growth (%)

compound=CN(CC(=O)Nc1nc2ccccc2[nH]1)S(=O)(=O)c1ccc(Cl)cc1 property=growth unit=% assay_value=67
compound="C=C1c2c(C)nn(-c3ccc(C#CCOC4OC(CO)C(O)C(O)C4O)cc3)c2N(C)C23C[C@H]1C1(C)c4c(C)nn(-c5ccc(C#CCOC6OC(CO)C(O)C(O)C6O)cc5)c4N(C)C(C)(C[C@H]12)C3 (stereo partly specified)" property=growth unit=% assay_value=7.57
compound=Cc1nn(-c2ccc(Br)cc2)c2nc3c(nc12)C(=O)C(=O)c1ccccc1-3 property=growth unit=% assay_value=101
compound=CC[C@H](C)C(=O)O[C@H]1C[C@@H](C)C=C2C=C[C@H](C)[C@H](CC[C@@H]3C[C@@H](O)CC(=O)O3)[C@H]21 property=growth unit=% assay_value=42.7
compound=COc1ccc(-c2oc3cc(O)c(OC)c(O)c3c(=O)c2OC)cc1O property=growth unit=% assay_value=13.6
compound=COc1ccc(COC(C)=O)cc1 property=growth unit=% assay_value=101
compound="Cc1cc2c(C#N)n3c(c2cc1C)C(=O)C(c1ccccc1)Oc1ccccc1-3 (stereo unspecified)" property=growth unit=% assay_value=35.1
compound=COC(=O)c1ccc2c(c1)nc(-c1ccc(O)c(OC)c1)n2-c1cc(C(C)(C)C)[nH]n1 property=growth unit=% assay_value=104
compound=COc1ccc(Cn2c(NCCCN(C)C)nc(=O)n(Cc3ccc(F)cc3)c2=O)cc1 property=growth unit=% assay_value=83.7
compound=Cc1ccccc1-c1cc(Cc2ccccc2O)c(=O)[nH]n1 property=growth unit=% assay_value=85.1
compound=Cn1cc(-c2csc(-c3cn(C)c4ncccc34)n2)c2cccnc21 property=growth unit=% assay_value=106
compound=CCN(CC)CCCNCCCNc1cc(OC)cc2cccnc12 property=growth unit=% assay_value=90.3
compound=CCOC(Cc1c(N)[nH]c(=S)[nH]c1=O)OCC property=growth unit=% assay_value=111
compound="CCn1c2c(c3ccccc31)SC1c3cccn3CCN1C2=S (stereo unspecified)" property=growth unit=% assay_value=96.4
compound=C=C(C)[C@H]1CC/C(C)=C/CC[C@]2(C)O[C@H]2CC/C(COC(C)=O)=C\C1=O property=growth unit=% assay_value=115
compound=Cc1ccc(C(=O)Nc2ccc(Cl)cc2C(=O)NCc2ccccc2)cc1 property=growth unit=% assay_value=94.2
compound=Cc1ccc(C=C2C(Cl)=C(Cl)C(Cl)=C2Cl)cc1 property=growth unit=% assay_value=-68.6
compound=O=C(Nc1nc(-c2ccc(Cl)cc2)cs1)c1cc(O)c(O)c(O)c1 property=growth unit=% assay_value=26.7
compound=COC(=O)CCC1=C(C)/C(=C/c2[nH]c(-c3ccc[nH]3)cc2OC)N=C1C property=growth unit=% assay_value=21.9
compound="COc1ccc(C2=NN(C(=O)c3cc(OC)c(OC)c(OC)c3)C(c3ccc(C#N)cc3)C2)cc1OC (stereo unspecified)" property=growth unit=% assay_value=49.3
compound=COc1ccc(-c2cnnn2-c2cc(OC)c3c(c2)OCO3)cc1 property=growth unit=% assay_value=29.9
